Each recorded value in this set is attributed to PubChem BioAssay.

In this section we review reported composite z-score values for a set of compounds.
Protocol Description: compound binding in COS7 lysate, probe aLAP1, primary screen, cell lysate, small-molecule microarray (AID 1124);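 further: lysate comes from COS7 cells expressing LAP1 and is applied at 0.3 µg/mL; score merges spot fluorescence near 667 nm with signal-to-noise over triplicate slides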
Cond: probe aLAP1, fluorescence, higher = more signal

Look over these answered cases.
INSERT INTO measurements (compound, outcome_measure, value_observed) VALUES
  ('CCOC(=O)CCN1C(=O)[C@H]2[C@H]3[C@H](O)[C@H](O)CC(=NNC(=O)OCC)[C@@H]3CC[C@H]2C1=O', 'composite z-score', 0.127),
  ('CC(=O)OC[C@H]1O[C@H](C#CC(C)(C)C)C=C[C@@H]1OC(C)=O', 'composite z-score', 0.164),
  ('COC(=O)[C@H](C)NC(=O)CCC1CC(OC(=O)NCCc2ccc(F)cc2)CC2(CCCC(COC(=O)NCCCN3CCCC3=O)O2)O1 (some centres not stated)', 'composite z-score', 0.0736),
  ('C[C@@H](ON=C1[C@H]2CCn3c(=O)n(-c4ccccc4)c(=O)n3[C@H]2[C@H](O)[C@@H]2O[C@H]12)c1cn([C@H](CO)Cc2ccccc2)nn1', 'composite z-score', 0.012),
  ('CCOC(=O)NN=C1C[C@@H](O)[C@@H](O)[C@@H]2[C@@H]3C(=O)N(Cc4ccccc4)C(=O)[C@@H]3CC[C@@H]12', 'composite z-score', 0.0195);

// query Please report the recorded composite z-score for "CCN1C(=O)[C@H]2[C@H]3[C@H](O)[C@H](O)CC(=NNC(=O)OCc4ccc(OC)cc4)[C@H]3CC[C@H]2C1=O" .
// result 0.5

// query Please report the recorded composite z-score for "O=C1[C@H]2[C@H]3[C@H](O)[C@H](O)CC(=NOCc4ccccc4)[C@H]3CC[C@H]2C(=O)N1Cc1ccccc1" .
// result -0.123
